- Assay comment: Stability assay in 25% TIDE 2X detergent without DTPA (residual Abz-AGLA-Nba protease activity)
- Assay type: physicochemical
- Recorded conditions: 180 min at 50°C; variant residual AGLA activity divided by wild-type residual activity
Reported property: PI (relative stability), 25% TIDE 2X without DTPA
Lab note: record the figure alone, no unit after it.

Below: 3 molecules and their reported PI (relative stability), 25% TIDE 2X without DTPA.
1) Y151S: single-substitution thermolysin variant (SEQ ID NO:3 numbering) (protein, listed as Geobacillus caldoproteolyticus) ITGTSTVGVGRGVLGDQKNINTTYSTYYYLQDNTRGNGIFTYDAKYRTTLPGSLWADADNQFFASYDAPAVDAHYYAGVTYDYYKNVHNRLSYDGNNAAIRSSVHYSQGYNNAFWNGSQMVYGDGDGQTFIPLSGGIDVVAHELTHAVTDSTAGLIYQNESGAINEAISDIFGTLVEFYANKNPDWEIGEDVYTPGISGDSLRSMSDPAKYGDPDHYSKRYTGTQDNGGVHINSGIINKAAYLISQGGTHYGVSVVGIGRDKLGKIFYRALTQYLTPTSNFSQLRAAAVQSATDLYGSTSQEVASVKQAFDAVGVK = 1.17
2) T049Q: single-substitution thermolysin variant (SEQ ID NO:3 numbering) (protein, listed as Geobacillus caldoproteolyticus) ITGTSTVGVGRGVLGDQKNINTTYSTYYYLQDNTRGNGIFTYDAKYRTQLPGSLWADADNQFFASYDAPAVDAHYYAGVTYDYYKNVHNRLSYDGNNAAIRSSVHYSQGYNNAFWNGSQMVYGDGDGQTFIPLSGGIDVVAHELTHAVTDYTAGLIYQNESGAINEAISDIFGTLVEFYANKNPDWEIGEDVYTPGISGDSLRSMSDPAKYGDPDHYSKRYTGTQDNGGVHINSGIINKAAYLISQGGTHYGVSVVGIGRDKLGKIFYRALTQYLTPTSNFSQLRAAAVQSATDLYGSTSQEVASVKQAFDAVGVK = 1.07
3) S065E: single-substitution thermolysin variant (SEQ ID NO:3 numbering) (protein, listed as Geobacillus caldoproteolyticus) ITGTSTVGVGRGVLGDQKNINTTYSTYYYLQDNTRGNGIFTYDAKYRTTLPGSLWADADNQFFAEYDAPAVDAHYYAGVTYDYYKNVHNRLSYDGNNAAIRSSVHYSQGYNNAFWNGSQMVYGDGDGQTFIPLSGGIDVVAHELTHAVTDYTAGLIYQNESGAINEAISDIFGTLVEFYANKNPDWEIGEDVYTPGISGDSLRSMSDPAKYGDPDHYSKRYTGTQDNGGVHINSGIINKAAYLISQGGTHYGVSVVGIGRDKLGKIFYRALTQYLTPTSNFSQLRAAAVQSATDLYGSTSQEVASVKQAFDAVGVK = 1.34

Now look at this entry.
**Q:** Returns the measured PI (relative stability), 25% TIDE 2X without DTPA for the input molecule. Input: S065W: single-substitution thermolysin variant (SEQ ID NO:3 numbering) (protein, listed as Geobacillus caldoproteolyticus) ITGTSTVGVGRGVLGDQKNINTTYSTYYYLQDNTRGNGIFTYDAKYRTTLPGSLWADADNQFFAWYDAPAVDAHYYAGVTYDYYKNVHNRLSYDGNNAAIRSSVHYSQGYNNAFWNGSQMVYGDGDGQTFIPLSGGIDVVAHELTHAVTDYTAGLIYQNESGAINEAISDIFGTLVEFYANKNPDWEIGEDVYTPGISGDSLRSMSDPAKYGDPDHYSKRYTGTQDNGGVHINSGIINKAAYLISQGGTHYGVSVVGIGRDKLGKIFYRALTQYLTPTSNFSQLRAAAVQSATDLYGSTSQEVASVKQAFDAVGVK
**A:** 1.09
